Source of measurements: patent US10287267B2

Molecular target: recombinant DYRK1A kinase (Homo sapiens (Human), UniProt Q13627)
Assay: DYRK1A kinase assay (Ser/Thr 18 peptide Z-lyte FRET)
Conditions: 30 μM ATP, 1 h room temperature
pEC50: −log10 of the molar value.
Assign class by pEC50: not lower than 8 means condition met; lower than 8 means condition not met.

# count of solved cases: 6
Input: Assess whether reported pEC50 for Cn1cc(-c2ccc3cnc(NC(=O)[C@H]4CC[C@H](N(C)C)CC4)cc3c2)cn1 sits at 8 or higher.
Output: condition met

Input: Could you please find out whether CN(C)C1CCC(C(=O)Nc2cc3cc(-c4cnn(C)c4)ccc3cn2)CC1 (stereo in doubt) has pEC50 that meets 8 or exceeds it?
Output: condition met

Input: Exam item: decide whether the reported pEC50 for O=C(Nc1cc2cc(-c3cnn4c3CN(CCF)CC4)ccc2cn1)C1CCNCC1 is at least 8.
Output: condition met

Input: Given CN1CCC(C(=O)Nc2cc3cc(-c4cnn(C)c4)c(F)cc3cn2)CC1 , state whether its pEC50 is at least 8.
Output: condition met

Input: State whether the measured pEC50 reaches 8, counting equality as reaching it, for CN1CCn2ncc(-c3ccc4cnc(NC(=O)C5CC(F)(F)C5)cc4c3)c2C1
Output: condition not met

Input: Decide: pEC50 of Cc1ncc(-c2ccc3cnc(NC(=O)CN4CCCCC4)cc3c2)o1 >= 8?
Output: condition not met

Consider the record given below.
Input: Threshold query (pEC50 >= 8) on Cc1nnc(-c2cc(F)c3cnc(NC(=O)CN4CCOCC4)cc3c2)s1
Output: condition not met

* * *

So I've got a bunch of molecules here, and I need their log10 of EC50 values.
Molecular target: recombinant DYRK1A kinase (Homo sapiens (Human), UniProt Q13627)
Assay: DYRK1A kinase assay (Ser/Thr 18 peptide Z-lyte FRET);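 further: Read-out is the coumarin to fluorescein emission ratio, referenced to unphosphorylated (0%) and phosphorylated (100%) Ser/Thr 18 peptide controls, values from dose-response curves by non-linear regression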
Settings: 30 μM ATP, 1 h room temperature
A difference of one corresponds to tenfold EC50; all values are log10 with EC50 in nM.

Previously resolved entries follow.
Input: Field: log10 of EC50 (recombinant DYRK1A kinase (Homo sapiens (Human), UniProt Q13627)). Entry: O=C(CN1CCOCC1)Nc1cc2cc(-c3cncs3)ccc2cn1
Output: 0.58

Input: Hi! What's the reported log10 of EC50 for Cc1ncc(-c2ccc3cnc(NC(=O)C4CCC(F)(F)CC4)cc3c2)n1C on recombinant DYRK1A kinase (Homo sapiens (Human), UniProt Q13627)?
Output: 0.53

Input: Give recombinant DYRK1A kinase (Homo sapiens (Human), UniProt Q13627) log10 of EC50 for CN1CC2(CC(C(=O)Nc3cc4cc(-c5cncn5C)ccc4cn3)C2)C1
Output: 0.46

Input: Report log10 of EC50 for C[C@H]1CCCN1CC(=O)Nc1cc2cc(-c3cnn(C)c3)ccc2cn1 tested on recombinant DYRK1A kinase (Homo sapiens (Human), UniProt Q13627).
Output: 0.76

Input: Which measured log10 of EC50 belongs to Cn1cc(-c2ccc3cnc(NC(=O)C45CCN(CC4)CC5)cc3c2)cn1 , tested on recombinant DYRK1A kinase (Homo sapiens (Human), UniProt Q13627)?
Output: 1.22

Input: Report log10 of EC50 for Cn1cc(-c2ccc3cnc(NC(=O)C4CCN(C5CCOCC5)CC4)cc3c2)cn1 tested on recombinant DYRK1A kinase (Homo sapiens (Human), UniProt Q13627).
Output: 0.54

Input: For the record O=C(Nc1cc2cc(-c3cnn4c3CN(CCF)CC4)ccc2cn1)C1CCN(CC2(C(F)(F)F)CC2)CC1 , what value of log10 of EC50 is listed for recombinant DYRK1A kinase (Homo sapiens (Human), UniProt Q13627)?
Output: 0.79

Input: API: value(readout= log10 of EC50, system= recombinant DYRK1A kinase (Homo sapiens (Human), UniProt Q13627), query= Cn1cc(-c2ccc3cnc(NC(=O)C4CCOCC4)cc3c2)cn1 )
Output: 0.28

// each listed molecule needs a value for log10 of EC50
1. Cn1cc(-c2ccc3cnc(NC(=O)C4CCN(CC5(C(F)(F)F)CC5)CC4)cc3c2)nn1
2. O=C(Nc1cc2cc(-c3cnc4n3CCNC4)ccc2cn1)C1CCN(C(=O)c2ccccc2)CC1

Output:
[0.43, 0.52]

Could you tell me log10 of EC50 for each of these molecules? They are listed below.
1. CN1CCN(CC(=O)Nc2cc3cc(-c4cncs4)ccc3cn2)CC1
2. C[C@H](F)CN1CCC(C(=O)Nc2cc3cc(-c4cnn(C)c4)ccc3cn2)CC1
3. CN1CCC(N2CCC(C(=O)Nc3cc4cc(-c5cncs5)ccc4cn3)CC2)CC1
4. CN1CCN(CC(=O)Nc2cc3cc(-c4cnn(C)c4)c(F)cc3cn2)CC1

Output:
0.63
0.28
0.11
1.03

Need log10 of EC50 for each of these molecules.
1. CC(F)(F)CN1CCC(C(=O)Nc2cc3cc(-c4cnco4)ccc3cn2)CC1
2. Cn1ncc(-c2ccc3cnc(NC(=O)[C@H]4CC[C@H](CO)CC4)cc3c2)c1CN1CCCCC1
3. CC(F)(F)CN1CCC(C(=O)Nc2cc3cc(-c4cncs4)ccc3cn2)CC1

Output:
1: 0.43; 2: 0.49; 3: 0.15
